Test system: galium (catchweed bedstraw, Galium aparine)
Assay info: Test C greenhouse herbicide test, pre- and postemergence
Assay type: in vivo
Assay context: Postemergence, 250 g ai/ha; scale 0 to 100, 0 no effect, 100 complete control; 13 to 15 d
Observation type: Plant response rating, Galium
Just the number, please.

[[record]]
compound = "Cc1nn(C)c(=O)c(-c2c(C)sc3ccc(Br)cc23)c1O [Compound 22]"
experimental_system = "galium (catchweed bedstraw, Galium aparine)"
observation_type = "Plant response rating, Galium"
test_value = 95

[[record]]
compound = "Cc1ccc2ccccc2c1-c1c(OC(=O)OC(C)C)c(C)nn(C)c1=O [Compound 72]"
experimental_system = "galium (catchweed bedstraw, Galium aparine)"
observation_type = "Plant response rating, Galium"
test_value = 95

[[record]]
compound = "CC(=O)Oc1c(C)nn(C)c(=O)c1-c1c(C)sc2ccc(C(F)(F)F)cc12 [Compound 132]"
experimental_system = "galium (catchweed bedstraw, Galium aparine)"
observation_type = "Plant response rating, Galium"
test_value = 95


Enquiry: Consider the compound shown here: CCC(=O)Oc1c(C)nn(C)c(=O)c1-c1ccc(F)c2ccccc12 [Compound 113] What is its recorded Plant response rating, Galium?
Return: 95

Enquiry: Check CC(=O)Oc1c(C)nn(C)c(=O)c1-c1c(C)cc(C)c2ccccc12 [Compound 99] too.
Return: 98

Enquiry: What do we get for Cc1ccc2sc(C)c(-c3c(OC(=O)OC(C)C)c(C)nn(C)c3=O)c2c1 [Compound 66] ?
Return: 95

Enquiry: Repeat for the following compound: Cc1ccc2ccccc2c1-c1c(O)c(I)nn(C)c1=O [Compound 29]
Return: 100

----------
Plant response rating, Pigweed reference
Test system: pigweed (Amaranthus retroflexus)
Assay info: Test A greenhouse herbicide test, pre- and postemergence
Type: in vivo
Assay context: Preemergence, 125 g ai/ha; visual injury rating, 0 to 100 scale (0 no effect, 100 complete control), approx. 10 d
Reply: number alone, nothing else.

Examples with their reported Plant response rating, Pigweed follow.
[[record]]
structure = "Cc1n[nH]c(=O)c(-c2cccc3ccccc23)c1OCC(F)F"
test_value = 0

[[record]]
structure = "Cc1cc(C)c2sc(C)c(-c3c(OC(=O)N4CCOCC4)c(C)nn(C)c3=O)c2c1"
test_value = 0

[[record]]
structure = "Cc1nn(C)c(=O)c(-c2ccc(Cl)c3ccccc23)c1OC(=O)C(F)(F)F"
test_value = 100


Next, consider the following compound.
Enquiry: Bench note: what Plant response rating, Pigweed did CCOC(=O)Oc1c(C)nn(C)c(=O)c1-c1c([N+](=O)[O-])ccc2ccccc12 show?
Return: 80

----------
Items are presented alongside their recorded Plant response rating, Foxtail, Green.
Tested on: foxtail, green (green foxtail, Setaria viridis)
Assay info: Test E greenhouse herbicide test, pre- and postemergence
Format: in vivo
Assay context: Preemergence, 250 g ai/ha; visual, scale 0 no effect to 100 complete control
Just the number, please.

Sample answers from the record:
[[record]]
compound = "CCc1sc2ccc(C)cc2c1-c1c(O)c(C)nn(C)c1=O [Compound 47]"
experimental_system = "foxtail, green (green foxtail, Setaria viridis)"
test_value = 70

[[record]]
compound = "Cc1ccc2ccccc2c1-c1c(OC(=O)OC(C)C)c(C)nn(C)c1=O [Compound 72]"
experimental_system = "foxtail, green (green foxtail, Setaria viridis)"
test_value = 70

[[record]]
compound = "Cc1ccc2sc(Br)c(-c3c(O)c(C)nn(C)c3=O)c2c1 [Compound 79]"
experimental_system = "foxtail, green (green foxtail, Setaria viridis)"
test_value = 90


Enquiry: Look up Plant response rating, Foxtail, Green for this compound: Cc1cc(C)c2sc(C)c(-c3c(O)c(C)nn(C)c3=O)c2c1 [Compound 2]
Return: 98

Enquiry: Now try Cc1ccc2ccccc2c1-c1c(O)c(I)nn(C)c1=O [Compound 29] .
Return: 100
